Data credit: paper PMC10244618

B1: NF2 (merlin) isoform 7, human, full length (507 aa, lacks exons 2-3 = isoform-1 residues 39-121; exon-16 C-terminus), P35240-4 (parent)
chain: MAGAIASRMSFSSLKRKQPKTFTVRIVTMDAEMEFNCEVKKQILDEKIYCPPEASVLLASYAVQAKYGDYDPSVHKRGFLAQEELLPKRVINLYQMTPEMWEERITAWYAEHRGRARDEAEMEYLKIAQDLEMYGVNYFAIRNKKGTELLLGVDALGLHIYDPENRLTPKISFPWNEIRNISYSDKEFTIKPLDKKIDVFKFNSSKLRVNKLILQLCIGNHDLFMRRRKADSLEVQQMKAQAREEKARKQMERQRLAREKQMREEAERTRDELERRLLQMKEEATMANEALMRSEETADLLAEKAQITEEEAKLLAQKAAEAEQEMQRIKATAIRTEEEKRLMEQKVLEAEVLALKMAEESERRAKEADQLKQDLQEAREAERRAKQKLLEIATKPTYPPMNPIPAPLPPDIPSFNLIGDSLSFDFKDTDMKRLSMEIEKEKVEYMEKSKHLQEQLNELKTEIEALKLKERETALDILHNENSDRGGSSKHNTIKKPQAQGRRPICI

- Variants of: B1
- EXPERIMENT DESCRIPTION: reverse yeast two-hybrid deep mutational scan (rY2H-seq): NF2 isoform 7 mutant library as bait mated with wild-type prey strains; selection on medium lacking adenine for non-interacting pairs; NextSeq paired-end sequencing; enrichment vs …
- TEST PARAMETERS: with PIK3R3 (phosphatidylinositol 3-kinase regulatory subunit gamma), Q92569; yeast diploids after mating (RBait_S3 x RPrey_S3), 30 °C, selection for reporter genes on NB agar; human tyrosine kinase ABL2 co-expressed as the active kinase …; HIGHER = WEAKER BINDING (the opposite of display enrichments): higher = stronger loss of interaction: reverse Y2H selects yeast in which bait and prey do NOT interact (growth without adenine), so a …; hits-only table; scale: rY2H score; numbering: uniprot, sequence starts at 1
Decision: enrichment compared against 2; not below it gives rule met, below it gives rule not met.

As a guide, the following entries are already answered.
MUTANT DESIGNATION: R364A
DISCRETE LABEL: rule met
--
MUTANT DESIGNATION: N176M
DISCRETE LABEL: rule not met
--
MUTANT DESIGNATION: P396A
DISCRETE LABEL: rule not met
--
MUTANT DESIGNATION: R166E
DISCRETE LABEL: rule not met
--
MUTANT DESIGNATION: R341E
DISCRETE LABEL: rule met

Task: Form field: enrichment at least 2? Entry: `N176L`
Result: rule not met

Task: Form field: enrichment at least 2? Entry: `Q279K`
Result: rule met

Task: Form field: enrichment at least 2? Entry: `L375K`
Result: rule met

Task: Form field: enrichment at least 2? Entry: `E458L`
Result: rule met

Task: Form field: enrichment at least 2? Entry: `A140V`
Result: rule met

Task: Form field: enrichment at least 2? Entry: `M401Q`
Result: rule met

Task: Form field: enrichment at least 2? Entry: `I334E`
Result: rule met

Task: Form field: enrichment at least 2? Entry: `R363E`
Result: rule met

Task: Form field: enrichment at least 2? Entry: `A381M`
Result: rule met

Task: Form field: enrichment at least 2? Entry: `I160C`
Result: rule not met

Task: Form field: enrichment at least 2? Entry: `E339K`
Result: rule not met

Task: Form field: enrichment at least 2? Entry: `D476K`
Result: rule met

Task: Form field: enrichment at least 2? Entry: `M280I`
Result: rule met
